Reported MBC90 by item:
# Tested on: Staphylococcus aureus
# ASSAY_PROCEDURE: Bactericidal activity against hospital-acquired methicillin-resistant Staphylococcus aureus by broth microdilution method
# Assay type: functional
Kindly write the number and append the unit.

Inquiry: Form field: reported MBC90 of CC(=O)NC[C@H]1CN(c2ccc(N3CCOCC3)c(F)c2)C(=O)O1 [LINEZOLID]
Reply text: 64 µg/mL

###

Reported MIC90 values follow for various compounds
# Tested on: Staphylococcus aureus
# ASSAY_PROCEDURE: Antimicrobial activity against community-acquired methicillin-resistant Staphylococcus aureus by broth microdilution method
# Format: functional
Write it as a number; the unit µg/mL goes unstated.

CC(=O)NC[C@H]1CN(c2ccc(N3CCOCC3)c(F)c2)C(=O)O1 ... 4

Inquiry: What value of MIC90 has been recorded for this entry: Nc1nc(/C(=N/O)C(=O)N[C@@H]2C(=O)N3C(C(=O)O)=C(/C=C4\CCN([C@@H]5CCNC5)C4=O)CS[C@H]23)ns1
Reply text: 2

Inquiry: # lookup: MIC90 of CN[C@H](CC(C)C)C(=O)N[C@H]1C(=O)N[C@@H](CC(N)=O)C(=O)N[C@H]2C(=O)N[C@H]3C(=O)N[C@H](C(=O)N[C@H](C(=O)O)c4cc(O)cc(O)c4-c4cc3ccc4O)[C@H](O)c3ccc(c(Cl)c3)Oc3cc2cc(c3O[C@@H]2O[C@H](CO)[C@@H](O)[C@H](O)[C@H]2O[C@H]2C[C@](C)(N)[C@H](O)[C@H](C)O2)Oc2ccc(cc2Cl)[C@H]1O
Reply text: 1

Inquiry: Value lookup for MIC90; key = CCCCCCCCCC(=O)N[C@@H](Cc1c[nH]c2ccccc12)C(=O)N[C@H](CC(N)=O)C(=O)N[C@@H](CC(=O)O)C(=O)N[C@@H]1C(=O)NCC(=O)N[C@@H](CCCN)C(=O)N[C@@H](CC(=O)O)C(=O)N[C@H](C)C(=O)N[C@@H](CC(=O)O)C(=O)NCC(=O)N[C@H](CO)C(=O)N[C@@H]([C@H](C)CC(=O)O)C(=O)N[C@@H](CC(=O)c2ccccc2N)C(=O)O[C@@H]1C
Reply text: 0.5

###

# Tested on: Staphylococcus aureus
# ASSAY_PROCEDURE: Bactericidal activity against hospital-acquired methicillin-resistant Staphylococcus aureus by broth microdilution method
# Format: functional
# TEST_PARAMETERS: Staphylococcus aureus
READOUT_LABEL: MBC (µg/mL)
# output: bare number, implied unit µg/mL

Worked examples follow.
CCCCCCCCCC(=O)N[C@@H](Cc1c[nH]c2ccccc12)C(=O)N[C@H](CC(N)=O)C(=O)N[C@@H](CC(=O)O)C(=O)N[C@@H]1C(=O)NCC(=O)N[C@@H](CCCN)C(=O)N[C@@H](CC(=O)O)C(=O)N[C@H](C)C(=O)N[C@@H](CC(=O)O)C(=O)NCC(=O)N[C@H](CO)C(=O)N[C@@H]([C@H](C)CC(=O)O)C(=O)N[C@@H](CC(=O)c2ccccc2N)C(=O)O[C@@H]1C ... 0.125
Nc1nc(/C(=N/O)C(=O)N[C@@H]2C(=O)N3C(C(=O)O)=C(/C=C4\CCN([C@@H]5CCNC5)C4=O)CS[C@H]23)ns1 [CEFTOBIPROLE] ... 0.5
CN[C@H](CC(C)C)C(=O)N[C@H]1C(=O)N[C@@H](CC(N)=O)C(=O)N[C@H]2C(=O)N[C@H]3C(=O)N[C@H](C(=O)N[C@H](C(=O)O)c4cc(O)cc(O)c4-c4cc3ccc4O)[C@H](O)c3ccc(c(Cl)c3)Oc3cc2cc(c3O[C@@H]2O[C@H](CO)[C@@H](O)[C@H](O)[C@H]2O[C@H]2C[C@](C)(N)[C@H](O)[C@H](C)O2)Oc2ccc(cc2Cl)[C@H]1O [VANCOMYCIN] ... 0.5

# context switch: different molecule, same MBC
Inquiry: API: value(readout=MBC, system=Staphylococcus aureus) for record CC(=O)NC[C@H]1CN(c2ccc(N3CCOCC3)c(F)c2)C(=O)O1 [LINEZOLID]
Reply text: 1

###

# Test system: Staphylococcus aureus
# ASSAY_PROCEDURE: Antimicrobial activity against community-acquired methicillin-resistant Staphylococcus aureus by broth microdilution method
# Type: functional
MIC50: recorded values
Kindly provide the numeric value in µg/mL only, without the unit symbol.

These recorded examples may help you get a feel for the data.
CCCCCCCCCC(=O)N[C@@H](Cc1c[nH]c2ccccc12)C(=O)N[C@H](CC(N)=O)C(=O)N[C@@H](CC(=O)O)C(=O)N[C@@H]1C(=O)NCC(=O)N[C@@H](CCCN)C(=O)N[C@@H](CC(=O)O)C(=O)N[C@H](C)C(=O)N[C@@H](CC(=O)O)C(=O)NCC(=O)N[C@H](CO)C(=O)N[C@@H]([C@H](C)CC(=O)O)C(=O)N[C@@H](CC(=O)c2ccccc2N)C(=O)O[C@@H]1C ... 0.25
CC(=O)NC[C@H]1CN(c2ccc(N3CCOCC3)c(F)c2)C(=O)O1 [LINEZOLID] ... 2
Nc1nc(/C(=N/O)C(=O)N[C@@H]2C(=O)N3C(C(=O)O)=C(/C=C4\CCN([C@@H]5CCNC5)C4=O)CS[C@H]23)ns1 [CEFTOBIPROLE] ... 1

Okay, next one:
Inquiry: Please tell me: MIC50 of CN[C@H](CC(C)C)C(=O)N[C@H]1C(=O)N[C@@H](CC(N)=O)C(=O)N[C@H]2C(=O)N[C@H]3C(=O)N[C@H](C(=O)N[C@H](C(=O)O)c4cc(O)cc(O)c4-c4cc3ccc4O)[C@H](O)c3ccc(c(Cl)c3)Oc3cc2cc(c3O[C@@H]2O[C@H](CO)[C@@H](O)[C@H](O)[C@H]2O[C@H]2C[C@](C)(N)[C@H](O)[C@H](C)O2)Oc2ccc(cc2Cl)[C@H]1O [VANCOMYCIN] , system Staphylococcus aureus?
Reply text: 1

###

Reported values of MBC for individual entries
# System: Staphylococcus aureus
# ASSAY_PROCEDURE: Bactericidal activity against community-acquired methicillin-resistant Staphylococcus aureus by broth microdilution method
# Type: functional
# TEST_PARAMETERS: Staphylococcus aureus
Value expressed in µg/mL; do not type the unit.

The following molecules have reported results that may help.
CCCCCCCCCC(=O)N[C@@H](Cc1c[nH]c2ccccc12)C(=O)N[C@H](CC(N)=O)C(=O)N[C@@H](CC(=O)O)C(=O)N[C@@H]1C(=O)NCC(=O)N[C@@H](CCCN)C(=O)N[C@@H](CC(=O)O)C(=O)N[C@H](C)C(=O)N[C@@H](CC(=O)O)C(=O)NCC(=O)N[C@H](CO)C(=O)N[C@@H]([C@H](C)CC(=O)O)C(=O)N[C@@H](CC(=O)c2ccccc2N)C(=O)O[C@@H]1C ... 0.125
Nc1nc(/C(=N/O)C(=O)N[C@@H]2C(=O)N3C(C(=O)O)=C(/C=C4\CCN([C@@H]5CCNC5)C4=O)CS[C@H]23)ns1 ... 0.5
CN[C@H](CC(C)C)C(=O)N[C@H]1C(=O)N[C@@H](CC(N)=O)C(=O)N[C@H]2C(=O)N[C@H]3C(=O)N[C@H](C(=O)N[C@H](C(=O)O)c4cc(O)cc(O)c4-c4cc3ccc4O)[C@H](O)c3ccc(c(Cl)c3)Oc3cc2cc(c3O[C@@H]2O[C@H](CO)[C@@H](O)[C@H](O)[C@H]2O[C@H]2C[C@](C)(N)[C@H](O)[C@H](C)O2)Oc2ccc(cc2Cl)[C@H]1O ... 0.5

Turning now to a further record.
Inquiry: Recorded MBC for CC(=O)NC[C@H]1CN(c2ccc(N3CCOCC3)c(F)c2)C(=O)O1 , please?
Reply text: 2

###

# Tested on: Staphylococcus aureus
# ASSAY_PROCEDURE: Antimicrobial activity against hospital-acquired methicillin-resistant Staphylococcus aureus by broth microdilution method
# Type: functional
READOUT_LABEL: MIC90 (µg/mL)
Kindly answer with a numeric value in µg/mL, unit omitted.

Worked set:
Nc1nc(/C(=N/O)C(=O)N[C@@H]2C(=O)N3C(C(=O)O)=C(/C=C4\CCN([C@@H]5CCNC5)C4=O)CS[C@H]23)ns1 ... 2
CC(=O)NC[C@H]1CN(c2ccc(N3CCOCC3)c(F)c2)C(=O)O1 ... 4
CN[C@H](CC(C)C)C(=O)N[C@H]1C(=O)N[C@@H](CC(N)=O)C(=O)N[C@H]2C(=O)N[C@H]3C(=O)N[C@H](C(=O)N[C@H](C(=O)O)c4cc(O)cc(O)c4-c4cc3ccc4O)[C@H](O)c3ccc(c(Cl)c3)Oc3cc2cc(c3O[C@@H]2O[C@H](CO)[C@@H](O)[C@H](O)[C@H]2O[C@H]2C[C@](C)(N)[C@H](O)[C@H](C)O2)Oc2ccc(cc2Cl)[C@H]1O ... 2

# ---- query compound ----
Inquiry: Request body: readout MIC90, system Staphylococcus aureus, query CCCCCCCCCC(=O)N[C@@H](Cc1c[nH]c2ccccc12)C(=O)N[C@H](CC(N)=O)C(=O)N[C@@H](CC(=O)O)C(=O)N[C@@H]1C(=O)NCC(=O)N[C@@H](CCCN)C(=O)N[C@@H](CC(=O)O)C(=O)N[C@H](C)C(=O)N[C@@H](CC(=O)O)C(=O)NCC(=O)N[C@H](CO)C(=O)N[C@@H]([C@H](C)CC(=O)O)C(=O)N[C@@H](CC(=O)c2ccccc2N)C(=O)O[C@@H]1C . Return the value.
Reply text: 0.5

Origin of values: ChEMBL document CHEMBL1275473
